Settings: pampa, 5 h, 500 µM
Description: Apparent permeability at 500 uM after 5 hrs by Gastro-intestinal-based PAMPA
MEASUREMENT NAME: Papp (×10⁻⁶ cm/s)

Input CSc1nc(Nc2cccc(Cl)c2)c2cnn(CCc3ccccc3)c2n1 . Output Papp: 0.25

Kindly note the recorded Papp for CSc1nc(Nc2cccc(Cl)c2)c2cnn(CC(Cl)c3ccccc3)c2n1 (configuration not stated) , which is 0.26

* * *

Biological target: Proto-oncogene tyrosine-protein kinase Src (Homo sapiens)
Sequence (P12931 2-536 limits assumed): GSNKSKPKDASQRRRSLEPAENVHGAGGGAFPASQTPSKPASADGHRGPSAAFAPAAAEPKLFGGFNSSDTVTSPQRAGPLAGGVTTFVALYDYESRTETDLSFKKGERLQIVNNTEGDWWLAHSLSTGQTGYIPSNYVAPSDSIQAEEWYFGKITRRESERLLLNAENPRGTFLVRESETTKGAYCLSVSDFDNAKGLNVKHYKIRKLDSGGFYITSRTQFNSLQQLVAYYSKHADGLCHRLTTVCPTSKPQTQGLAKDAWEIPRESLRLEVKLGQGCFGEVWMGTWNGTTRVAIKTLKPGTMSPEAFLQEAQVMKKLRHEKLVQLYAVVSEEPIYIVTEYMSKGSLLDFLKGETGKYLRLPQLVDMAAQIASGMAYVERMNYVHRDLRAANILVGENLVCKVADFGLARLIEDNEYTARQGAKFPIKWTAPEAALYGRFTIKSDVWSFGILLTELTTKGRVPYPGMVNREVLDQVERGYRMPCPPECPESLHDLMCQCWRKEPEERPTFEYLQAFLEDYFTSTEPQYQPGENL
Assay: biochemical
Description: Inhibition of human wild type full length N-terminal GST/6His-tagged SRC (M1 to L536 residues) expressed in baculovirus infected Sf9 cells using src peptide as substrate after 5 mins in presence of [gamma-32P]ATP by scintillation counting method
MEASUREMENT NAME: Ki

The recorded Ki for CSc1nc(N(C(=O)OC(C)CN2CCN(C)CC2)c2cccc(Br)c2)c2cnn(CC(C)c3ccccc3)c2n1 (configuration not stated) is > 100 µM

Then there is this molecule:
Notebook: CN1CCN(CCOC(=O)N(c2cccc(Br)c2)c2nc(SCCN3CCOCC3)nc3c2cnn3CC(Cl)c2ccccc2)CC1 (configuration not stated) , Ki read as > 100 µM

* * *

Assay: Plasma concentration in BALB/C mouse at 50 mg/kg, ip via bolus administration measured at 24 hrs post dose by UV/LC-MS
Assay type: ADME, organism-based
MEASUREMENT NAME: concentration at 24 h (µM)
Could you give me the number in µM? Just the number is fine.

// concentration at 24 h value for ClC(Cn1ncc2c(Nc3cccc(Br)c3)nc(SCCN3CCOCC3)nc21)c1ccccc1 (configuration not stated) : 2.6

More entries:
Record CN1CCN(CCOC(=O)N(c2cccc(Br)c2)c2nc(SCCN3CCOCC3)nc3c2cnn3CC(Cl)c2ccccc2)CC1 (configuration not stated) , field concentration at 24 h: 5.4

* * *

Assay: cells
Settings: Homo sapiens, U-87 MG, 72 h
Description: Cytotoxicity against human U87 cells assessed as reduction in cell viability after 72 hrs by trypan blue assay
pIC50: −log10 of the molar value.
MEASUREMENT NAME: pIC50

The compound CN1CCN(CCOC(=O)N(c2ccccc2)c2ncnc3c2cnn3CC(Cl)c2ccc(Br)cc2)CC1 (centres undefined) showed pIC50 equal to 5.70

pIC50 reported for this compound CSc1nc(N(C(=O)OCCN2CCN(C)CC2)c2cccc(Br)c2)c2cnn(CC(C)c3ccccc3)c2n1 (centres undefined) : 5.80

Memo: ClC(Cn1ncc2c(Nc3ccccc3)ncnc21)c1ccc(Br)cc1 (centres undefined) , reported pIC50: 4.85

Item: CSc1nc(Nc2cccc(Cl)c2)c2cnn(CC(Cl)c3ccccc3)c2n1 (centres undefined) | pIC50: 4.90

The recorded pIC50 for CSc1nc(N(C(=O)OC(C)CN2CCN(C)CC2)c2cccc(Br)c2)c2cnn(CC(C)c3ccccc3)c2n1 (centres undefined) is 5.74

(1) CSc1nc(N(C(=O)OC(Cc2ccccc2)CN2CCN(C)CC2)c2cccc(Br)c2)c2cnn(CC(C)c3ccccc3)c2n1 (centres undefined)
(2) CN1CCN(CCOC(=O)N(Cc2ccccc2)c2ncnc3c2cnn3CC(Cl)c2ccccc2)CC1 (centres undefined)
# input Among 1 and 2 , which shows a numerically higher pIC50 result? Give the label of your selection.
# output 1
(1: 5.77, 2: 4.82)

* * *

Experiment: Half life in mouse plasma by UV/LC-MS analysis
Type: ADME, cell-free
Entries annotated with measured half-life
Response body: numeric value in h, unit text excluded.

According to the records, this molecule CN1CCN(CCOC(=O)N(c2cccc(Br)c2)c2nc(SCCN3CCOCC3)nc3c2cnn3CC(Cl)c2ccccc2)CC1 (configuration not stated) displays half-life of 1.16

Next:
Value of measured half-life for the entry CSc1nc(N(C(=O)OCCN2CCN(C)CC2)c2cccc(Br)c2)c2cnn(CC(C)c3ccccc3)c2n1 (configuration not stated) : 2
